Collected pIC50 values appear next to each entry.
- target_or_system: PARP (Homo sapiens, UniProt P09874)
- Sequence (P09874 whole entry): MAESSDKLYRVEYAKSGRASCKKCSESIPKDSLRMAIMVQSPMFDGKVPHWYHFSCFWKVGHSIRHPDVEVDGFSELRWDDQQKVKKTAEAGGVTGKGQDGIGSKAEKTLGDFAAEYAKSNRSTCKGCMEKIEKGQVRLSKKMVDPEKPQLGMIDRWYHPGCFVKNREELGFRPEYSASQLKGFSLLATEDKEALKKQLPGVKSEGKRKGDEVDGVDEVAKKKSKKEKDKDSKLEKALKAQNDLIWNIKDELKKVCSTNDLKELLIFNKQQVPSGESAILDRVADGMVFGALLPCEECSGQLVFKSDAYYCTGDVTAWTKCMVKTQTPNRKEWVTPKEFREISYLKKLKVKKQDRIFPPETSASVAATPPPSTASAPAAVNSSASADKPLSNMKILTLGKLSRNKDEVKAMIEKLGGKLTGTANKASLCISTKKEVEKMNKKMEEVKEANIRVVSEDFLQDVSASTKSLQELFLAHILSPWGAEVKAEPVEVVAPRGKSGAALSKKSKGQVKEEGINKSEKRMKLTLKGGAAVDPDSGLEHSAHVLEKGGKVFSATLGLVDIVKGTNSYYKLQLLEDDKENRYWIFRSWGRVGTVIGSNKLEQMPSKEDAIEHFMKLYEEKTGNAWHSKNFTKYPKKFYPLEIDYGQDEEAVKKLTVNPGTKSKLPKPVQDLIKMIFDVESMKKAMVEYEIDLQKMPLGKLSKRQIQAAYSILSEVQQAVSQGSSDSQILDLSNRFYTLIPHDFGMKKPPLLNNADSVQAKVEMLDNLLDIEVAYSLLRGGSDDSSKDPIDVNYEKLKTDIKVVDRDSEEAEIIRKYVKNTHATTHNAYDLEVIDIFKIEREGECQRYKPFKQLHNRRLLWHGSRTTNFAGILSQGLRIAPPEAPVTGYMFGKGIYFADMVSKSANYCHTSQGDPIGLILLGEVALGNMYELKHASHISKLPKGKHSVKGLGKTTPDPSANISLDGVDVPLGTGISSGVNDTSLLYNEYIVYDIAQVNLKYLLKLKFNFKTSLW
pIC50: −log10 of the molar value.
property_name: pIC50

>>> print(df.to_string())
                                    compound  value_observed
 0  COc1ccc(-c2ccc(N3CCN(Cc4cnc5c(c4)NC(=O)[C@@H]4CCCCN54)CC3)cc2)cn1          ≤ 7.30
 1  N#Cc1ccc(N2CCN(Cc3cnc4c(c3)NC(=O)[C@@H]3CCCCN43)CC2)nc1          ≥ 7.90
 2  Cc1cc(F)ccc1N1CCN(Cc2cnc3c(c2)NC(=O)[C@@H]2CCCN32)CC1    7.40 to 7.80
 3  CNS(=O)(=O)c1ccc(N2CCN(Cc3cnc4c(c3)NC(=O)[C@@H]3CCCN43)CC2)cc1          ≤ 7.30
 4  Cc1ccccc1-c1ccc(N2CCN(Cc3cnc4c(c3)NC(=O)[C@@H]3CCCCN43)CC2)cc1          ≤ 7.30
 5  O=C1Nc2cc(CN3CCC(c4ccc(Cl)cc4)CC3)cnc2N2CCSCC12 (centres unmarked)          ≥ 7.90
 6  COc1cccc(-c2ccc(N3CCN(Cc4cnc5c(c4)NC(=O)[C@@H]4CCCCN54)CC3)cc2)n1          ≤ 7.30
 7  CN1CC(=O)Nc2cc(CN3CC=C(c4ccc(Cl)cc4)CC3)cnc21          ≤ 7.30
 8  O=C(NC1CC1)c1ccc(N2CCN(Cc3cnc4c(c3)NC(=O)[C@@H]3CCCCN43)CC2)c(Cl)c1    7.40 to 7.80
 9  O=C(NC1CC1)c1ccc(N2CCN(Cc3cnc4c(c3)NC(=O)[C@@H]3CCCCN43)CC2)cc1    7.40 to 7.80
10  Cn1cc(-c2ccc(N3CCN(Cc4cnc5c(c4)NC(=O)[C@@H]4CCCCN54)CC3)cc2)cn1    7.40 to 7.80
11  CC(C)N1CC(=O)Nc2cc(CN3CC=C(c4ccc(Cl)cc4)CC3)cnc21          ≤ 7.30
12  O=C1Nc2cc(CN3CCN(c4ccc(Cl)c(F)c4)CC3)cnc2N2CCC[C@@H]12          ≤ 7.30
13  COc1ncc(-c2ccc(N3CCN(Cc4cnc5c(c4)NC(=O)[C@@H]4CCCCN54)CC3)cc2)cn1    7.40 to 7.80
14  Cc1cc(-c2ccc(N3CCN(Cc4cnc5c(c4)NC(=O)[C@@H]4CCCCN54)CC3)cc2)ccn1    7.40 to 7.80
15  O=C1Nc2cc(CN3CCN(c4ccc(F)cc4)CC3)cnc2N2CCC[C@@H]12    7.40 to 7.80
16  COC(=O)c1ccc(N2CCN(Cc3cnc4c(c3)NC(=O)[C@@H]3CCCN43)CC2)cc1    7.40 to 7.80
17  CCOC(=O)c1ccc(N2CCN(Cc3cnc4c(c3)NC(=O)[C@@H]3CCCN43)CC2)nc1    7.40 to 7.80
18  O=C1CN(Cc2ccccc2)c2ncc(CN3CC=C(c4ccc(Cl)cc4)CC3)cc2N1    7.40 to 7.80
19  O=C1Nc2cc(CN3CCN(c4ccc(-c5cncnc5)cc4)CC3)cnc2N2CCCC[C@@H]12          ≤ 7.30
20  Cc1cscc1-c1ccc(N2CCN(Cc3cnc4c(c3)NC(=O)[C@@H]3CCCCN43)CC2)cc1          ≤ 7.30
21  CN1CC(=O)Nc2cc(CN3CCC(c4ccc(Cl)cc4)CC3)cnc21          ≤ 7.30
22  CCNC(=O)c1ccc(N2CCN(Cc3cnc4c(c3)NC(=O)[C@@H]3CCCCN43)CC2)c(Cl)c1    7.40 to 7.80
23  CNC(=O)c1ccc(N2CCN(Cc3cnc4c(c3)NC(=O)[C@@H]3CCCCN43)CC2)c(C)c1          ≤ 7.30
24  Nc1cccc(-c2ccc(N3CCN(Cc4cnc5c(c4)NC(=O)[C@@H]4CCCCN54)CC3)cc2)n1          ≤ 7.30
25  O=C1Nc2cc(CN3CCN(c4ccc(Br)cc4)CC3)cnc2N2CCC[C@@H]12          ≤ 7.30
26  Cc1ccc(-c2ccc(N3CCN(Cc4cnc5c(c4)NC(=O)[C@@H]4CCCCN54)CC3)cc2)s1          ≤ 7.30
27  COc1ncccc1-c1ccc(N2CCN(Cc3cnc4c(c3)NC(=O)[C@@H]3CCCCN43)CC2)cc1          ≤ 7.30
28  O=C1Nc2cc(CN3CC=C(c4ccc(Cl)cc4)CC3)cnc2N2CCCCC12 (centres unmarked)          ≥ 7.90
29  Cc1cc(C#N)ccc1N1CCN(Cc2cnc3c(c2)NC(=O)[C@@H]2CCCN32)CC1    7.40 to 7.80
30  O=C1Nc2cc(CC3CCN(c4ccc(Cl)cc4)CC3)cnc2N2CCC[C@@H]12          ≤ 7.30
31  CN1CC(=O)Nc2cc(CN3CCN(c4ccc(Cl)cc4)CC3)cnc21          ≤ 7.30
